Values were extracted from PubChem BioAssay (NCI).

I'd be grateful if you could share measured TGI for these entries.
# System: NCI-H226 lung
# Test: NCI tumour cell line growth inhibition, 48 h

Would you please look over these solved cases?
Cc1cc(S(=O)(=O)N/N=C(\Sc2cc(Cl)c(C)cc2S(N)(=O)=O)c2ccc(Cl)cc2)c(Cl)cc1Cl; > 100 µM
CC1CCOc2ccc(cc2)C=Nc2ccc(cc2)CCc2ccc(cc2)N=Cc2ccc(cc2)OCC1 (centres undefined); > 100 µM
COC(=O)[C@H](Cc1ccccc1)NC(=O)[C@H](Cc1ccccc1)NC(=O)[C@@H]1CCCN1C(=O)N[C@H]1C2C=CC(C2)C1C(=O)N1CCC[C@H]1C(=O)N[C@@H](C)C(=O)N[C@H](C(=O)OC)C(C)C (some centres undefined); > 100 µM
COC(=O)N/N=C(\C)C(CN1CCCCC1)C(C1=C(O)c2ccccc2OC1)c1ccccc1 (centres undefined); > 100 µM
CC(=O)Nc1cc2c(s1)CCC1CC(=O)NN=C21 (centres undefined); > 100 µM

Each molecule below has a recorded value; state its TGI.
1. NC(=O)NNC(=O)c1nc[nH]c1[N+](=O)[O-]
2. Cc1[nH]c(=O)[nH]c(=O)c1/C=C/C(=O)O
3. CC(C)(C=O)CC(C#N)/C(=N\NC(N)=O)C(=O)Nc1ccccc1C(N)=O (centres undefined)
4. CCOC(=O)c1c[nH]c2oc(/C=N/N3CC(CN4CCOCC4)OC3=O)cc2c1=O (centres undefined)
5. O=C(O)CC[N+]1=CCC(c2ccccc2)(c2ccccc2)O1
6. CC(=O)c1sc(-c2nc(C)c(C(=O)/C=C\c3ccc(/C=C\C(=O)c4sc(-c5nc(C)c(C(C)=O)s5)nc4C)cc3)s2)nc1C
7. CCOP(=O)(OCC)c1c(C(=O)OC)cc(=O)[nH]c1-c1ccc(C)cc1
8. CCN1C(=O)C(=C/C=C/c2ccc([N+](=O)[O-])cc2)C(=O)N(CC)C1=S

Result:
1. > 100 µM
2. > 1000 µM
3. > 100 µM
4. > 100 µM
5. > 100 µM
6. > 100 µM
7. 29.6 µM
8. > 100 µM

Below are some molecules; for each one, tell me its TGI.
1. CC12CCCCC1(C)C2Sc1ccccc1 (centres undefined)
2. COc1cc2c3c(n(CCCN(C)C)c(=O)c2cc1OC)-c1ccccc1C3=O
3. CC(=O)N1N=C(c2ccc3ccccc3c2O)CC1C(=O)c1ccco1 (centres undefined)
4. COc1cccc(-n2c3nc(=O)n(C)c(=O)c-3nc3ccccc32)c1
5. O=C(Cc1ccccc1)NN1C(=O)/C(=C\c2cccc(O)c2)SC1=Nc1ccccc1

Result:
1: > 100 µM; 2: > 100 µM; 3: > 100 µM; 4: 55.6 µM; 5: > 100 µM

Please supply TGI for each of the following items, keeping them in order.
1. O=C1OC2(OC2c2ccccc2)c2ccccc21 (centres undefined)
2. CC1(C)O/C(=C\c2ccccc2)C(=O)/C(=C/c2ccccc2)O1
3. O=c1[nH]/c(=C/c2ccc(OCc3ccccc3)cn2)c(=O)[nH]/c1=C/c1ccc(O)cc1
4. O=C1[C@H]2ON(c3ccccc3)C(c3ccc(Cl)cc3)[C@H]2C(=O)N1c1ccc(Cc2ccc(N3C(=O)[C@@H]4ON(c5ccccc5)C(c5ccc(Cl)cc5)[C@@H]4C3=O)cc2)cc1 (some centres undefined)
5. O=C(Cc1ccccc1)NN1C(=O)C(Cl)C1c1ccc(O)cc1 (centres undefined)
6. CCOC(=O)/C=C(/C(=O)OCC)n1ccc(N)nc1=O
7. CC(C)CNC(=O)O

Result:
> 100 µM
96.3 µM
> 100 µM
> 100 µM
> 100 µM
> 100 µM
> 100 µM

Batch lookup, TGI per entry.
1. CC1=NN(C(=O)CC(=O)N(C(=O)c2ccccc2Cl)c2ccc(C)cc2)C(=O)C1N=Nc1ccc([N+](=O)[O-])cc1 (centres undefined)
2. N=C(N)SCc1cccc(-c2nc3ccccc3c(=O)o2)c1
3. CC1(CF)SCc2nc3ccccc3n21 (centres undefined)
4. C=C1C(=O)O[C@H]2/C=C(/C)C3=CC(=O)[C@@](C)(C[C@@H](OC(=O)/C(C)=C\C)C12)O3 (some centres undefined)
5. CC(=O)/C=C/c1ccc(C#Cc2ccccc2)s1

Result:
["> 100 µM", "> 100 µM", "> 100 µM", "11.1 µM", "36.4 µM"]

Could you report TGI for every entry in the following list?
1. COc1ccc(C2c3cc(OC)c(OC)cc3C(Cc3ccc([N+](=O)[O-])cc3)C2c2ccc([N+](=O)[O-])cc2)cc1OC (centres undefined)
2. CN(CCCNC(=O)Cc1ccc2ccc3cccc4ccc1c2c34)CCCNc1cc(-c2ccc3ccccc3c2)nc2ccccc12
3. CC(=O)O[C@H]1CC[C@@]2(C)C(=CC[C@H]3[C@@H]4C[C@H](N5CCCC5)[C@H](OC(C)=O)[C@@]4(C)CC[C@@H]32)C1
4. CN(NC(=O)c1cccs1)C1=NCCCN1
5. COc1ccc(-c2oc3cc(O)c(OC)c(O)c3c(=O)c2OC)cc1O
6. C1C[OH+]CCNCC[OH+]CC[OH+]CCN1.[Cl-].[Pt+4]
7. COc1ccc(Nc2c3ccccc3nc3occ(Cl)c23)cc1
8. O=c1c2c([N+](=O)[O-])cccc2nc2[nH]c3ccccc3n12

Result:
1. > 100 µM
2. 3.83 µM
3. > 100 µM
4. > 100 µM
5. > 100 µM
6. > 100 µM
7. > 100 µM
8. > 75 µM

Note to self: TGI recorded for CC(C)N=c1cc2n(-c3ccc(Cl)cc3)c3ccccc3nc-2cc1Nc1ccc(Cl)cc1 was > 50 µM
